Protocol notes: compounds lowering YIC probe YFP/CFP ratio – biochemical, dry powder samples, FRET, counter-screen for RanGTP-importin-beta inhibitor project, dose response (AID 493094)
Reported conditions: cell-free YIC FRET probe; series mostly up to 100 µM
The source made the active and inactive calls.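 Rule for the calls: active = falling FRET signal with an AC50 fitted within ten times the highest valid concentration tested for that sample (actives reach about 61 µM in these data); inactive = the rest, including compounds that raise the signal.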
Reply using exactly one outcome from label 1 = active, label 0 = inactive

Recorded results for 4 compounds are shown here.
{"Smiles str": "CCCN(CCC)c1nc(NCc2ccccc2)nc2ccccc12", "Group": "label 0"}
{"Smiles str": "CCCN(CCC)c1nc(N2CCCC2)nc2ccccc12", "Group": "label 0"}
{"Smiles str": "CCN(CC)c1nc(N2CCCC2)nc2ccccc12", "Group": "label 0"}
{"Smiles str": "C=CCn1c(N)c(C(=O)OCCC)c2nc3ccccc3nc21", "Group": "label 1"}

Now consider the entry below.
Hello, I am checking results. What call was entered for CCCN(CCC)c1nc(N2CCNCC2)c2ccccc2n1 ?
label 0

====

Protocol notes: compounds lowering YIC probe YFP/CFP ratio – biochemical, dry powder samples, FRET, counter-screen for RanGTP-importin-beta inhibitor project, dose response (AID 493094)
Reported conditions: cell-free YIC FRET probe; series mostly up to 100 µM
Calls of active or inactive are those of the source.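 The calls were made as follows: active = falling FRET signal with an AC50 fitted within ten times the highest valid concentration tested for that sample (actives reach about 61 µM in these data); inactive = the rest, including compounds that raise the signal.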
Response enum: active, inactive

{"Compound": "CC1(C)CC(=O)c2c(C(F)(F)F)nn(-c3ccc(C(N)=O)c(NC4CCC(OC(=O)CN)CC4)c3)c2C1 (stereo not given)", "Group": "inactive"}
{"Compound": "CCNc1nc(N2CCCC2)nc2ccccc12", "Group": "inactive"}
{"Compound": "C[C@@H](Nc1nc(Cl)nc2ccccc12)c1ccccc1", "Group": "inactive"}
{"Compound": "CC1(C)CC(=O)c2c(C(F)(F)F)nn(-c3ccc(C(N)=O)c(OC4CCC(N)CC4)c3)c2C1 (stereo not given)", "Group": "inactive"}
{"Compound": "COCCNC(=O)/C(C#N)=C/c1cn(CC(=O)NCc2ccco2)c2ccccc12", "Group": "active"}

Now consider a different compound.
Answer briefly: the call reported for Cc1cccc(-n2c(C)cc(/C=C3/C(=N)N4N=C(CC(C)C)SC4=NC3=O)c2C)c1 in this assay.
active

====

Protocol notes: compounds lowering YIC probe YFP/CFP ratio – biochemical, dry powder samples, FRET, counter-screen for RanGTP-importin-beta inhibitor project, dose response (AID 493094)
Reported conditions: cell-free YIC FRET probe; series mostly up to 100 µM
The source made the active and inactive calls.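 The calls were made as follows: active = falling FRET signal with an AC50 fitted within ten times the highest valid concentration tested for that sample (actives reach about 61 µM in these data); inactive = the rest, including compounds that raise the signal.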
Allowed answers: True = active, False = inactive

Worked examples, 8 compounds total:
{"Compound": "CC1=C(C(=O)OCC2CCCO2)C(c2ccccc2OC(C)C)C2C(=O)CC(c3ccco3)CC2=N1 (stereo unspecified)", "Group": "True"}
{"Compound": "CCCN(CCC)c1nc(N2CCCC2)nc2cc(OC)c(OC)cc12", "Group": "False"}
{"Compound": "C[C@H](Nc1nc(N2CCCC2)nc2ccccc12)c1ccccc1", "Group": "False"}
{"Compound": "O=C(O)Cn1cc(/C=C2\\SC(=O)N(CC(=O)N3CCCCCC3)C2=O)c2ccccc21", "Group": "True"}
{"Compound": "COc1cc2nc(N3CCCC3)nc(N3CCCC3)c2cc1OC", "Group": "False"}
{"Compound": "Cc1ccc(S(=O)(=O)c2cc3c(=O)n4cccc(C)c4nc3n(C3CCCCC3)c2=N)cc1", "Group": "True"}
{"Compound": "c1ccc2c(N3CCOCC3)nc(N3CCOCC3)nc2c1", "Group": "False"}
{"Compound": "c1ccc(CNc2nc(N3CCCC3)nc3ccccc23)cc1", "Group": "False"}

Tell me the assay call for C[C@H](Nc1nc(Cl)nc2ccccc12)c1ccccc1 please.
False

// param item: CC1(C)CC(=O)c2c(C(F)(F)F)nn(-c3ccc(C(N)=O)c(NC4CCC(O)CC4)c3)c2C1 (stereo unspecified) ; yields the recorded call
False

Give the logged outcome of this assay for the following compound: CC(C)SCC(=O)Nc1ncc2c(n1)-c1ccccc1CC2
True
